Where these numbers come from: the FLAb antibody collection (doi:10.7554/elife.23156)

B1: scFv; the commonest letter at each place (parent)
chain 1: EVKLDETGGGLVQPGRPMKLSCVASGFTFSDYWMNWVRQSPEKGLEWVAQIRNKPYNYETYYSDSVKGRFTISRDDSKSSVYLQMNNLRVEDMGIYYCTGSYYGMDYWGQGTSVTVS
chain 2: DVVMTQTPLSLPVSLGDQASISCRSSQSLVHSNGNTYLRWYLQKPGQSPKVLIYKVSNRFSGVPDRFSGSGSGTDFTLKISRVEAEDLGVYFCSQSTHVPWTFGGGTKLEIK

Variants of: B1
measurement description: Kd (Tite-Seq)
conditions used: with fluorescein; format: scFv 4-4-20, heavy + light
parameter measured: Kd

chain 1 G104D W108Q : ≥ 10 µM
chain 1 Y102R Y107N : ≥ 10 µM
chain 1 S101C G104V D106F : ≥ 10 µM

What does the record list as Kd for chain 1 S101V ?
≥ 10 µM
